Origin of values: patent EP0942911B1

- target: α-1A adrenoreceptor (Rattus norvegicus)
- Sequence (P43140 whole entry): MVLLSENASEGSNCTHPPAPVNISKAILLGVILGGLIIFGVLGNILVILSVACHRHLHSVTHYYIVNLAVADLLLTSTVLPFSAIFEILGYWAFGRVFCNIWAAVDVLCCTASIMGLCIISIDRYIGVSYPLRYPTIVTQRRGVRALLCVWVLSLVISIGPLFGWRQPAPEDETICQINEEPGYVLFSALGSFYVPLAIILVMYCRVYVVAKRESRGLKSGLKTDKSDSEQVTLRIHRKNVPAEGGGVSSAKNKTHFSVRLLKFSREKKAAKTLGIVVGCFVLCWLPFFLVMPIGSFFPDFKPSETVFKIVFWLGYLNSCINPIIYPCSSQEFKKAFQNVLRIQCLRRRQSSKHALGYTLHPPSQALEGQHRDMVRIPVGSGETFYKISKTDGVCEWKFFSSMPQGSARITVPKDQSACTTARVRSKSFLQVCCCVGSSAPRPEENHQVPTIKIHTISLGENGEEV
- assay.info: cell-based
- experimental.setup: phenylephrine-induced contraction; Schild plot; read-out: In Vitro Characterization (pA2) Rat Vas (converted)
Structures can show the parent of a compound that is named as a salt.
Exercise: for every item that follows, state its recorded log10 Kb.
Could you please treat all values as log10 of Kb in nM?

(Q) What value of log10 Kb has been reported for the following molecule? COc1cccc2c1[C@@H]1CN(CCCCn3c(=O)[nH]c4c(sc5ccncc54)c3=O)C[C@H]1CO2 [Example 41, dihydrochloride]
(A) -0.45

(Q) // query: COc1ccc2sc3c(=O)n(CCCCN4C[C@@H]5COc6cccc(OC)c6[C@@H]5C4)c(=O)[nH]c3c2n1 [Example 30, hydrochloride]
(A) -0.60

(Q) Also check COc1cccc2c1[C@@H]1CCN(CCCCn3c(=O)[nH]c4c(sc5ncc(Cl)nc54)c3=O)C[C@H]1CO2 [Example 97, dihydrochloride]
(A) 0.19

(Q) Same for COc1cccc2c1[C@@H]1CN(CCCCn3c(=O)[nH]c4c(sc5c(OC)ccnc54)c3=O)C[C@@H]1CO2 [Example 18, dihydrochloride]
(A) -0.13

(Q) Param item: COc1cccc2c1[C@@H]1CN(CCCCn3c(=O)[nH]c4c(sc5ncc(-c6ccccc6)nc54)c3=O)C[C@H]1CO2 [Example 50, hydrochloride]
(A) -1.35

(Q) Can you handle COc1ccc2sc3c(=O)n(CCCCN4C[C@H]5COc6cccc(OC)c6[C@@H]5C4)c(=O)[nH]c3c2n1 [Example 26, hydrochloride] next?
(A) -1.34

---

- target: α-1a adrenoreceptor (Bos taurus)
- Sequence (P18130 whole entry): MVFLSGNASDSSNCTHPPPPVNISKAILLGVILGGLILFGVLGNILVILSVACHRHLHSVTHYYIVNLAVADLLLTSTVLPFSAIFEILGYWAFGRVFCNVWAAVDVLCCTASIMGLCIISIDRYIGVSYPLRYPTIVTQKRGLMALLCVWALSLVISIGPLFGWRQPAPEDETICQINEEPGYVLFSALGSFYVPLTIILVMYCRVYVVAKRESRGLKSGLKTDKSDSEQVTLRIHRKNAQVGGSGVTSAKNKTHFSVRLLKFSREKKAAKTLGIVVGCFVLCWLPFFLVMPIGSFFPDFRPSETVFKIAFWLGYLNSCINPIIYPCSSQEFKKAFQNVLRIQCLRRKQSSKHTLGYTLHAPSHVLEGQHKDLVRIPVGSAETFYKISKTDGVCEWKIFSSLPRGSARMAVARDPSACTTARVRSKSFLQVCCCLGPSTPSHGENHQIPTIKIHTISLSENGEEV
- assay.info: biochemical
- Assay type: binding, bovine
- experimental.setup: [3H]-prazosin radioligand; cloned receptor in LTK cell membranes; read-out: Radioligand Binding (Ki, nM) 1a (Bovine)
Where a name gives a salt, the structure may show the parent alone.
Decision: Ki beneath 0.1 nM gives True; Ki meeting or exceeding 0.1 nM gives False.

(Q) Does the reported Ki of COc1cccc2c1[C@@H]1CCN(CCCCn3c(=O)[nH]c4c(sc5ncc(-c6ccccc6)nc54)c3=O)C[C@H]1CO2 [Example 100, hydrochloride] stay below 0.1 nM?
(A) False

(Q) Now this one: COc1cnc2c(c1)sc1c(=O)n(CCCCN3C[C@H]4COc5cccc(OC)c5[C@@H]4C3)c(=O)[nH]c12 [Example 27, hydrochloride]
(A) True

(Q) // query: COc1ccc2sc3c(=O)n(CCCCN4CC[C@H]5c6c(OC)cccc6OC[C@@H]5C4)c(=O)[nH]c3c2n1 [Example 98, hydrochloride]
(A) False

(Q) Similarly, COc1ccc2sc3c(=O)n(CCCCN4C[C@@H]5COc6cccc(OC)c6[C@@H]5C4)c(=O)[nH]c3c2n1 [Example 30, hydrochloride] ?
(A) True

(Q) Same for COc1cccc2c1[C@@H]1CN(CCCCn3c(=O)[nH]c4c(sc5ncc(-c6ccccc6)nc54)c3=O)C[C@H]1CO2 [Example 50, hydrochloride]
(A) False

(Q) Next entry: COc1cccc2c1[C@@H]1CN(CCCCn3c(=O)[nH]c4c(sc5cc(Cl)cnc54)c3=O)C[C@@H]1CO2 [Example 38, hydrochloride]
(A) True

(Q) Try this compound next: COc1cccc2c1[C@@H]1CN(CCCCn3c(=O)[nH]c4c(sc5nccnc54)c3=O)C[C@H]1CO2 [Example 14, dihydrochloride]
(A) True

(Q) Further, for COc1cccc2c1[C@@H]1CN(CCCCn3c(=O)[nH]c4c(sc5ccncc54)c3=O)C[C@H]1CO2 [Example 41, dihydrochloride] ?
(A) True

(Q) Repeat with COc1cccc2c1[C@@H]1CN(CCCCn3c(=O)[nH]c4c(sc5ncccc54)c3=O)C[C@H]1CO2 [Example 44, hydrochloride]
(A) True

(Q) One more compound: COCCn1c(=O)n(CCCCN2C[C@@H]3COc4cccc(OC)c4[C@H]3C2)c(=O)c2sc3nccnc3c21 [Example 11, hydrochloride]
(A) False

(Q) # repeat for COc1cccc2c1[C@@H]1CN(CCCCn3c(=O)[nH]c4c(sc5ccc(Cl)nc54)c3=O)C[C@@H]1CO2 [Example 37, hydrochloride]
(A) True

(Q) Then COc1cccc2c1[C@@H]1CN(CCCCn3c(=O)[nH]c4c(sc5ncc(Cl)nc54)c3=O)C[C@@H]1CO2 [Example 16, hydrochloride] ?
(A) True

(Q) Now consider COc1cccc2c1[C@H]1CN(CCCCn3c(=O)[nH]c4c(sc5ccc(Cl)nc54)c3=O)C[C@@H]1CO2 [Example 6, dihydrochloride] and answer again.
(A) False

(Q) Also check COc1cccc2c1[C@@H]1CN(CCCCn3c(=O)[nH]c4c(sc5ncc(Cl)nc54)c3=O)C[C@H]1CO2 [Example 13, hydrochloride]
(A) True

(Q) Further, for COc1cccc2c1[C@@H]1CN(CCCCn3c(=O)[nH]c4c(sc5ccc(Cl)nc54)c3=O)C[C@H]1CO2 [Example 25, dihydrochloride] ?
(A) True

(Q) Now try COc1cccc2c1[C@H]1CN(CCCCn3c(=O)[nH]c4c(sc5nccnc54)c3=O)C[C@@H]1CO2 [Example 12, dihydrochloride] .
(A) False

(Q) Next record, please: COc1cccc2c1[C@H]1CCN(CCCCn3c(=O)[nH]c4c(sc5cccnc54)c3=O)C[C@@H]1CO2 [Example 94, dihydrochloride]
(A) True

(Q) Try the compound COc1cccc2c1[C@@H]1CN(CCCCn3c(=O)[nH]c4c(sc5cccnc54)c3=O)C[C@@H]1CO2 [Example 1, hydrochloride]
(A) True

(Q) Please give the result for COc1cccc2c1[C@@H]1CN(CCCCn3c(=O)[nH]c4c(sc5cnccc54)c3=O)C[C@H]1CO2 [Example 42, dihydrochloride] too.
(A) True

(Q) Please answer likewise for COc1cccc2c1[C@H]1CCN(CCCn3c(=O)[nH]c4c(sc5cccnc54)c3=O)C[C@@H]1CO2 [Example 93, dihydrochloride]
(A) False

(Q) // query: COc1cccc2c1[C@H]1CN(CCCCn3c(=O)[nH]c4c(sc5c(OC)ccnc54)c3=O)C[C@@H]1CO2 [Example 8, dihydrochloride]
(A) False

(Q) Param item: COc1cccc2c1[C@@H]1CN(CCCCn3c(=O)[nH]c4c(sc5nc(C)ccc54)c3=O)C[C@@H]1CO2 [Example 35, hydrochloride]
(A) True

(Q) How about COc1ccc2c(n1)sc1c(=O)n(CCCCN3C[C@H]4COc5cccc(OC)c5[C@@H]4C3)c(=O)[nH]c12 [Example 46, hydrochloride] ?
(A) True

(Q) Now the same for COc1cccc2c1[C@@H]1CN(CCCCn3c(=O)[nH]c4c(sc5ncc(-c6ccsc6)nc54)c3=O)C[C@@H]1CO2 [Example 57, dihydrochloride]
(A) True

(Q) // query: COc1cnc2sc3c(=O)n(CCCCN4CC[C@H]5c6c(OC)cccc6OC[C@@H]5C4)c(=O)[nH]c3c2n1 [Example 99, hydrochloride]
(A) False
